# Tested On: Sodium- and chloride-dependent GABA transporter 1 (Mus musculus)
# Method Notes: Inhibition of mouse mGAT1 expressed in HEK293 cells assessed as inhibition of [3H]GABA uptake after 3 mins incubation by TopCount microplate scintillation counting analysis
# Format: cell-based
# Settings: read-out: IC50

Compound	Tested On	IC50
Cc1ccsc1C(=CCCN1CCNCC1C(=O)O)c1sccc1C (racemic)	Sodium- and chloride-dependent GABA transporter 1 (Mus musculus)	195 µM
CN(CCC=C1c2ccccc2CCc2ccccc21)CCCP(=O)(O)O	Sodium- and chloride-dependent GABA transporter 1 (Mus musculus)	> 1000 µM
Cc1ccsc1C(=CCCN1CCNCC(C(=O)O)C1)c1sccc1C (stereo not given)	Sodium- and chloride-dependent GABA transporter 1 (Mus musculus)	43.8 µM
O=C(O)C1CNCCN1CCON=C(c1ccccc1)c1ccccc1 (racemic)	Sodium- and chloride-dependent GABA transporter 1 (Mus musculus)	> 1000 µM
Cc1ccsc1C(=CCCN(C)[C@H]1CCCC[C@@H]1C(=O)O)c1sccc1C	Sodium- and chloride-dependent GABA transporter 1 (Mus musculus)	264 µM

Attribution: ChEMBL document CHEMBL3399947
